Data provenance: ChEMBL document CHEMBL5500420

test: Solubility of compound at pH 7 by high-throughput analysis; assay type: physicochemical; details: buffer

{"Chemical Structure": "CC(C)Oc1ccc(-c2ccc(N(CCOC(F)F)C(=O)[C@@H]3C[C@H]3c3ccncn3)c3ncnn23)cc1", "solubility (µg/mL)": 11}

----------
system: P-gp; experiment: Apparent permeability in P-gp overexpressing MDCK-MDR1 cells at 1 uM incubated upto 2 hrs; assay type: ADME, cell-based, Canis lupus familiaris; conditions: dog

{"Chemical Structure": "Cc1nnc2n1-c1sc(CCC(=O)N3CCOCC3)cc1C(c1ccccc1Cl)=NC2", "Measured Target": "P-gp", "Papp at 2 h, 1 µM": "3 ×10⁻⁶ cm/s"}

----------
biological target: G protein-coupled receptor 88 (Mus musculus, UniProt Q9EPB7); assay: Agonist activity at mouse GPR88 transfected in HEK293 cells incubated for 10 mins by Gi1 BRET assay; type: functional, cell-based
Sequence (Q9EPB7 whole entry): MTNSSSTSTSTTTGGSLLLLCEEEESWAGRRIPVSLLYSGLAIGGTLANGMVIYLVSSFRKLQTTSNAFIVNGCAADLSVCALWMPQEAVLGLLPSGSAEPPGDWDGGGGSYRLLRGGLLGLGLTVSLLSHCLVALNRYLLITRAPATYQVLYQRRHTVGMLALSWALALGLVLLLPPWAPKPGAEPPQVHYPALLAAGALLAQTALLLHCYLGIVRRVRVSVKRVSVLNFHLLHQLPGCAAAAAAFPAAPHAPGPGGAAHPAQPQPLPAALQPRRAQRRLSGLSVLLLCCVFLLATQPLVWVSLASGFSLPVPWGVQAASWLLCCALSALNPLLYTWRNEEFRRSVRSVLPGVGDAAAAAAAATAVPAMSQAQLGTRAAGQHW

{"Chemical Structure": "CC(C)Oc1ccc(-c2ccc(N(CCOC(F)F)C(=O)[C@@H]3C[C@H]3c3ccncn3)c3c2cnn3C)cc1", "EC50 (nM)": 94}
{"Chemical Structure": "COc1cc(-c2ccc(OC(C)C)cc2)ccc1N(C[C@@H](N)[C@@H](C)OC)C(=O)[C@@H]1C[C@H]1c1ccncn1", "EC50 (nM)": 226}
